Measured IC50, IL-25 induced CXCL1 production in HT-29 cells, listed per entry.
# MEASURED_TARGET: T1, recombinant human IL-25 protein (human, UniProt Q9H293 33-177)
# T1 sequence: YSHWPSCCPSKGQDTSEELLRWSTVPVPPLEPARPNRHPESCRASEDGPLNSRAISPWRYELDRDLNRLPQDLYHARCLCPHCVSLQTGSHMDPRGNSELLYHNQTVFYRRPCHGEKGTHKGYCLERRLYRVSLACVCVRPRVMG
# MEASUREMENT_NOTES: cell-based or functional assay

Worked set:
The binder identified as IL25Ab11 (antibody, IgG1, V domains shown) VH: QVQLVQSGAEVKKPGASVKVSCKASGYSFTGYTMNWVRQAHGKNLEWMGLINPDNGGTSHKQKFQGRVTMTVDKSISTAYMELSRLRSDDTAVYYCAREGYYGPSPFHHYAMDYWGQGTLVTVSS VL: DIQMTQSPSSLSASVGDRVTITCQASQDISNYLNWYQQKPDGTIKLLIYYTSTLHTGVPSRFSGSGSGTDYTLTISSLQPEDIATYYCQQYSKLPYTFGGGTKLEIK registered its IC50, IL-25 induced CXCL1 production in HT-29 cells at 0.187 nM

IC50, IL-25 induced CXCL1 production in HT-29 cells reading for IL25Ab8 (antibody, IgG1, V domains shown) VH: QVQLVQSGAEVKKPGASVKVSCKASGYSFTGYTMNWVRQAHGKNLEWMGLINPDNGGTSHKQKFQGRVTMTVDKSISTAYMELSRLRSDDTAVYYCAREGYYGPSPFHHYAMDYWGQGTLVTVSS VL: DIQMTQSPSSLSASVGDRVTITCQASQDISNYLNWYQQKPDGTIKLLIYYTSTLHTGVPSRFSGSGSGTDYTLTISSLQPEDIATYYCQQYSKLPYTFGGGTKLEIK : 0.199 nM

// IC50, IL-25 induced CXCL1 production in HT-29 cells lookup, binder = IL25Ab6 (antibody, V domains shown) VH: QVQLVQSGAEVKKPGASVKVSCKASGYSFTGYTMNWVRQAPGQGLEWMGLINPDNGGTSYKQKFQGRVTMTVDKSISTAYMELSRLRSDDTAVYYCAREGYYGPSPFHHYAMDYWGQGTLVTVSS VL: DIQMTQSPSSLSASVGDRVTITCQASQDISNYLNWYQQKPGKAPKLLIYYTSTLHTGVPSRFSGSGSGTDYTFTISSLQPEDIATYYCQQYSKLPYTFGQGTKLEIK , result: 0.225 nM

// field: IC50, IL-25 induced CXCL1 production in HT-29 cells; key: IL25Ab7 (antibody, IgG1, V domains shown) VH: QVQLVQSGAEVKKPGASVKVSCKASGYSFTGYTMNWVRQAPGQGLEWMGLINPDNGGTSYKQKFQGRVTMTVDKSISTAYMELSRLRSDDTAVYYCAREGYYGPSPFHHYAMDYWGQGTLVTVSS VL: DIQMTQSPSSLSASVGDRVTITCQASQDISNYLNWYQQKPDGTIKLLIYYTSTLHTGVPSRFSGSGSGTDYTFTISSLQPEDIATYYCQQYSKLPYTFGQGTKLEIK ; value = 0.183 nM

Lab book: IC50, IL-25 induced CXCL1 production in HT-29 cells of IL25Ab10 (antibody, V domains shown) VH: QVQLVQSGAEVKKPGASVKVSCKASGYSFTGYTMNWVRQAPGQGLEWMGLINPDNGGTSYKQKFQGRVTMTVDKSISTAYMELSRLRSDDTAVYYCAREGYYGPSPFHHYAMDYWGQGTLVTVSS VL: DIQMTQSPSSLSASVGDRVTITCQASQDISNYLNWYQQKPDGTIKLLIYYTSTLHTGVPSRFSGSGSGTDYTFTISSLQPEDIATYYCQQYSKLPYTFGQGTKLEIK noted as 0.198 nM

---
Lab note: measured IC50, IL-25 induced CXCL1 production in HT-29 cells of IL25Ab9 (antibody, V domains shown) VH: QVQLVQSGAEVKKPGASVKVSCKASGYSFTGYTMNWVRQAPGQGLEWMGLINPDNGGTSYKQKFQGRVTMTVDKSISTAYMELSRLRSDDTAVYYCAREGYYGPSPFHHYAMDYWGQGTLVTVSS VL: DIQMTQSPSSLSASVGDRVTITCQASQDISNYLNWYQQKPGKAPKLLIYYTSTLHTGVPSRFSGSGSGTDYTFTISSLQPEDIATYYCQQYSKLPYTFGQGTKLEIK was 0.225 nM

Measured values drawn from patent US20260242458A1 for this set.
